# study.target: Substance-P receptor (Rattus norvegicus, UniProt P14600)
# Sequence (P14600 whole entry): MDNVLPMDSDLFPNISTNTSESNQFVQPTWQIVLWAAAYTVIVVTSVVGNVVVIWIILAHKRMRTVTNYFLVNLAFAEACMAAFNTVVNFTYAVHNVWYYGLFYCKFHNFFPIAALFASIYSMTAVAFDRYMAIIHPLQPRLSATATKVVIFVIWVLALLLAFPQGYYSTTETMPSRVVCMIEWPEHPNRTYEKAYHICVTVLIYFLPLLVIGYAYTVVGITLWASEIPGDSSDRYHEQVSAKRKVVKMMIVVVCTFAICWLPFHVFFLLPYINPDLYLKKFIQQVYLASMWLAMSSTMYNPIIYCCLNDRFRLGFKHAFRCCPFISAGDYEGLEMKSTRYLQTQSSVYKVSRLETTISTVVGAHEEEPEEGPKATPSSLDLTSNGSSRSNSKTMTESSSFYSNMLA
# method.summary: Inhibition of [125]I-Bolton Hunter Substance P([125]I-BHSP) binding to Tachykinin receptor 1 from rat forebrain membranes.
# Format: cell membranes, Membrane
Entries and their IC50

The examples below pair each entry with its known result.
compound | study.target | reported.value
c1ccc2c(c1)nc1nc3c(cn12)CCCC3 | Substance-P receptor (Rattus norvegicus, UniProt P14600) | > 10 µM
C[C@]12CCC3C(CC[C@@H]4Cc5nc6nc7ccccc7n6cc5C[C@]34C)C1CC[C@@H]2O (stereo partly drawn) | Substance-P receptor (Rattus norvegicus, UniProt P14600) | > 10 µM
CC(C)CCCC(C)[C@@H]1CCC2C3CCC4Cc5nc6nc7ccccc7n6cc5C[C@]4(C)C3CC[C@@]21C (stereo partly drawn) | Substance-P receptor (Rattus norvegicus, UniProt P14600) | > 10 µM
COC(=O)[C@H]1CCC2C3CCC4Cc5nc6nc7ccccc7n6cc5C[C@]4(C)C3CC[C@@]21C (stereo partly drawn) | Substance-P receptor (Rattus norvegicus, UniProt P14600) | > 10 µM

What value of IC50 has been recorded for this entry: CC#C[C@]1(O)CCC2C3CCC4Cc5nc6nc7ccccc7n6cc5C[C@]4(C)C3CC[C@@]21C (stereo partly drawn) 0.18 µM

Look up IC50: C[C@]12Cc3cn4c(nc3CC1CCC1C2CC[C@]2(C)C(=O)CCC12)nc1ccccc14 (stereo partly drawn) > 10 µM

Name the recorded IC50 for C#CC[C@]1(O)CCC2C3CCC4Cc5nc6nc7ccccc7n6cc5C[C@]4(C)C3CC[C@@]21C (stereo partly drawn) . 0.32 µM

// lookup IC50 for C[C@]12Cc3cn4c(nc3CC1CCC1C2CC[C@@]2(C)C1CC[C@@]2(O)c1ccccc1)nc1ccccc14 (stereo partly drawn) > 10 µM

====

# study.target: Substance-P receptor (Rattus norvegicus, UniProt P14600)
# Type: cell membranes, Membrane
measured.property: pIC50
Formally, pIC50 is defined as -log10 of the concentration c, with c in mol/L.

compound | measured.property | reported.value
C#C[C@]1(O)CCC2C3CC[C@H]4Cc5nc6nc7cc8ccccc8cc7n6cc5C[C@]4(C)C3CC[C@@]21C (stereo partly drawn) | pIC50 | 6.49
C[C@]12Cc3cn4c(nc3CC1CCC1C2CC[C@@]2(C)C1CC[C@]2(C)O)nc1ccccc14 (stereo partly drawn) | pIC50 | 6.70
C=C[C@]1(O)CCC2C3CCC4Cc5nc6nc7ccccc7n6cc5C[C@]4(C)C3CC[C@@]21C (stereo partly drawn) | pIC50 | 7.07

Okay, next one:
Give its pIC50 value. Item: C[C@]12Cc3cn4c(nc3CC1CCC1C2CC[C@@]2(C)C1CC[C@@H]2O)nc1ccccc14 (stereo partly drawn) 6.66

====

# study.target: Substance-P receptor (Rattus norvegicus)
# Format: cell membranes, Membrane
measured.property: IC50

Worked examples follow.
molecule | study.target | measured.property | reported.value
COC(=O)CCC(C)[C@H]1CCC2C3C(C[C@H](O)[C@@]21C)[C@@]1(C)Cc2cn4c(nc2CC1C[C@H]3O)nc1ccccc14 (some centres undefined) | Substance-P receptor (Rattus norvegicus) | IC50 | > 2.5 µM
C#C[C@]1(OC)CCC2C3CCC4Cc5nc6nc7ccccc7n6cc5C[C@]4(C)C3CC[C@@]21C (some centres undefined) | Substance-P receptor (Rattus norvegicus) | IC50 | > 10 µM
C=CC1=CCCC2Cc3nc4nc5ccccc5n4cc3C[C@]12C (some centres undefined) | Substance-P receptor (Rattus norvegicus) | IC50 | > 10 µM

# input for lookup
What IC50 value was documented for this molecule, CC(CCC(=O)O)[C@H]1CCC2C3C(C[C@H](O)[C@@]21C)[C@@]1(C)Cc2cn4c(nc2CC1C[C@H]3O)nc1ccccc14 (some centres undefined) ? > 10 µM

Origin of the recorded values: ChEMBL document CHEMBL1125293
